Cited source for all entries: paper PMC7582507

# System: Leishmania amazonensis promastigotes
# ASSAY_COMMENT: Leishmanicidal activity against L. amazonensis promastigotes (XTT, 72 h)
# EXPERIMENTAL_PARAMETERS: Leishmania amazonensis, 72 h, read-out: L. amazoniensis IC50, promastigotes, 72 h, average ± SD of at least three experiments
Kindly apply the following: yes (1) if IC50 is less than 90 µM, no (0) in every other case.

In plain terms, does COc1ccc2c(c1)-c1cc(CO)ccc1CO2 [8a] come in under 90 µM for IC50?
no (0)

Regarding CC(C)c1ccc2c(c1)-c1cc(CO)ccc1C(C)(C)O2 [10f] , kindly confirm whether its IC50 is beneath 90 µM.
yes (1)

====

Please provide measured pIC50 for the entries that follow.
# Tested on: Raw 264.7 murine macrophage cell line
# ASSAY_COMMENT: Cytotoxicity on RAW cells (resazurin, 72 h)
# EXPERIMENTAL_PARAMETERS: read-out: Cytotoxicity IC50; RAW cells, 72 h, average ± SD of at least three experiments
Answers are plain numbers, as −log10 of the molar value.

Answered cases to consult:
>>> number("O=C(Cn1ccnc1[N+](=O)[O-])NCc1ccccc1 [Benznidazole, reference compound]")
4.13
>>> number("CCC1Oc2ccc(OC)cc2-c2cc(CO)ccc21 (stereo not shown)")
4.35
>>> number("COc1ccc2c(c1)-c1cc(CO)ccc1C(C)O2 (stereo not shown)")
4.28

Bench note, Raw 264.7 murine macrophage cell line: `COc1ccc2c(c1)-c1cc(CO)ccc1C(C)(C)O2` , pIC50 reads 4.51

====

# ASSAY_COMMENT: Cytotoxicity on RAW cells (resazurin, 72 h)
# EXPERIMENTAL_PARAMETERS: mouse, RAW 264.7 macrophage cells, Cytotoxicity IC50, RAW cells, 72 h, average ± SD of at least three experiments
For each record, check the reported IC50 at 72 h: if it is below 40 µM write MET, else write NOT MET.

Example cases with answers are listed next.
>>> cat("COc1ccc2c(c1)-c1cc(CO)ccc1CO2 [8a]")
"NOT MET"
>>> cat("CC1(C)Oc2ccccc2-c2cc(CO)ccc21 [10e]")
"NOT MET"
>>> cat("CCC1(CC)Oc2ccc(OC)cc2-c2cc(CO)ccc21 [8f]")
"NOT MET"
>>> cat("COc1ccc2c(c1)-c1cc(CO)ccc1C(C)O2 (stereo not drawn) [8b]")
"MET"

With those in mind, consider the next compound.
Is IC50 at 72 h strictly under 40 µM for the entry CCC1Oc2ccc(OC)cc2-c2cc(CO)ccc21 (stereo not drawn) [8d] ?
MET

====

# Tested on: Leishmania amazonensis promastigotes
# ASSAY_COMMENT: Leishmanicidal activity against L. amazonensis promastigotes (XTT, 72 h)
# EXPERIMENTAL_PARAMETERS: Leishmania amazonensis, 72 h, read-out: L. amazoniensis IC50, promastigotes, 72 h, average ± SD of at least three experiments
MEASURED_ENDPOINT: pIC50
One number for each entry, as −log10 of the molar value.

>>> number("CC1(C)Oc2ccccc2-c2cc(CO)ccc21 [10e]")
4.04

Give measured pIC50 for every item shown.
1. CCCCCc1ccc2c(c1)-c1cc(CO)ccc1C(C)(C)O2 [10h]
2. CCC1Oc2ccc(OC)cc2-c2cc(CO)ccc21 (stereo not shown)

1. 4.77
2. 4.15

For reference, reported pIC50 for `CCC1(CC)Oc2ccc(OC)cc2-c2cc(CO)ccc21` stands at 4.43
